# method.description: Oral bioavailability in dog
# Type: ADME, organism-based, Canis lupus familiaris
# applied.conditions: in vivo
measurement.kind: bioavailability

Please give the measured bioavailability for this molecule: O=C(c1cccnc1)N1CCN2C(=O)c3ccncc3[C@]12c1ccc(Cl)cc1 [BTA-9881] 100%

---

# method.description: Kinetic solubility in 0.01M HCl buffer at pH 2.0 by nephelometry
# Format: physicochemical
# applied.conditions: read-out: Kinetic_solubility
# solubility kinetic listing for each entry below
Express the result in µg/mL but write the number alone.

molecule: O=C(c1ccoc1)N1CCN2C(=O)c3ccncc3[C@]12c1ccc(Cl)cc1
result.units: µg/mL
numeric.value: 50

Moving on to another molecule below.
Please give the measured solubility kinetic for this molecule: O=C(c1ccco1)N1CCN2C(=O)c3ccncc3C12c1ccc(Cl)cc1 (racemic) 50
